Target: human receptor GPR17 (Homo sapiens)
Construct: expressed in transfected cells; host or cells: human 1321N1 astrocytoma cells, calcium phosphate transfection with pcDNA3.1; plasma membranes used
Experiment: [35S]GTPγS binding assay on membranes of 1321N1 cells transfected with human GPR17
Type: biochemical
Details: efficacy relative to LTC4 set to 100%
Observed property: % Emax vs standard (%)

COc1ccc(-n2c(SC(C)C(=O)Nc3ccccc3)nnc2-c2ccccc2OC)cc1 (centres unmarked) [(I)] : 100.6
CCCCC/C=C\C\C=C/C=C/C=C/[C@@H](SC[C@H](NC(=O)CC[C@H](N)C(=O)O)C(=O)NCC(=O)O)[C@@H](O)CCCC(=O)O [LTC4, reference compound] : 100

---

Target: human receptor GPR17 (Homo sapiens)
Construct: expressed in transfected cells; host or cells: human 1321N1 astrocytoma cells, calcium phosphate transfection with pcDNA3.1; plasma membranes used
Test: [35S]GTPγS binding assay on membranes of 1321N1 cells transfected with human GPR17
Assay type: biochemical
Conditions: [35S]GTPγS binding; LTC4 at 100 nM; in % (unit assumed)
Observed property: Emax

COCCn1nnnc1C(c1cc2cc(OC)ccc2[nH]c1=O)N(CCc1ccccc1)Cc1ccccc1 (centres unmarked) [(II)] : 206.8
COc1ccc(-n2c(SC(C)C(=O)Nc3ccccc3)nnc2-c2ccccc2OC)cc1 (centres unmarked) [(I)] : 145.6
O=C(Nc1ccc(C(F)(F)F)cc1)N1CCC(c2nc(O)c3nnn(Cc4ccccc4Cl)c3n2)CC1 [(V)] : 161.5
CCCCC/C=C\C\C=C/C=C/C=C/[C@@H](SC[C@H](NC(=O)CC[C@H](N)C(=O)O)C(=O)NCC(=O)O)[C@@H](O)CCCC(=O)O [LTC4, reference compound] : 144.8
COc1ccc(N(C(=O)Cn2nnc3ccccc32)C(C(=O)NCC2CCCO2)c2ccc(F)cc2)cc1 (centres unmarked) [(IV)] : 173.5

---

Molecular target: human receptor GPR17 (Homo sapiens, UniProt Q13304)
Construct: plasma membranes used
Sequence (Q13304 29-367 limits assumed): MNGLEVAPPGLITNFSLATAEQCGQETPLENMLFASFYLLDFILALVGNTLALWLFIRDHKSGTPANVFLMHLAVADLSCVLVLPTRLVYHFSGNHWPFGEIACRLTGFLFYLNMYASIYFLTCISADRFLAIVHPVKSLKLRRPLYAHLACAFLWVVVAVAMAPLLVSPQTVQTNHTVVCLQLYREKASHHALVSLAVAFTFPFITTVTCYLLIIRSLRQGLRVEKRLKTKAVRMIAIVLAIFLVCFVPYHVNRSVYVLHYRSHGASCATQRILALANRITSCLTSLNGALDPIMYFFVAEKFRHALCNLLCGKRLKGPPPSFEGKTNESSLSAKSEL
Assay: [35S]GTPγS binding assay on membranes of 1321N1 cells transfected with human GPR17
Conditions: [35S]GTPγS binding, 1321N1 cells expressing human GPR17; mean±SEM of three experiments
Description: A—The compounds according to the invention were evaluated for their functional activity on GPR17 using a well-known assay for GPCRs, the [^35S]GTPγS binding assay, which is based on the ability of the agonist to increase radioactive GTP binding when a GPCR is activated. The antagonist activity is evaluated according to the ability to counteract the increased [^35S]GTPγS binding induced by the LTC4 reference agonist. […]
Observed property: EC50 (nM)

I = COc1ccc(-n2c(SC(C)C(=O)Nc3ccccc3)nnc2-c2ccccc2OC)cc1 (stereo not shown) [(I)]
II = COCCn1nnnc1C(c1cc2cc(OC)ccc2[nH]c1=O)N(CCc1ccccc1)Cc1ccccc1 (stereo not shown) [(II)]
Q: Endpoint returns whichever of I and II has the numerically higher EC50. Return value: the label identifying the chosen record.
Result: II

I = O=C(Nc1ccc(C(F)(F)F)cc1)N1CCC(c2nc(O)c3nnn(Cc4ccccc4Cl)c3n2)CC1 [(V)]
II = COc1ccc(N(C(=O)Cn2nnc3ccccc32)C(C(=O)NCC2CCCO2)c2ccc(F)cc2)cc1 (stereo not shown) [(IV)]
Q: Returns the identifier with the smallest measured EC50 among I and II . Return value: the label identifying the chosen record.
Result: I
(I: 0.268 nM, II: 2.27 nM)

---

Target: human receptor GPR17 (Homo sapiens, UniProt Q13304)
Construct: expressed in transfected cells; host or cells: human 1321N1 astrocytoma cells, calcium phosphate transfection with pcDNA3.1; plasma membranes used
Assay: [35S]GTPγS binding assay on membranes of 1321N1 cells transfected with human GPR17
Format: biochemical
Conditions: efficacy relative to LTC4 set to 100%
Method: A—The compounds according to the invention were evaluated for their functional activity on GPR17 using a well-known assay for GPCRs, the [^35S]GTPγS binding assay, which is based on the ability of the agonist to increase radioactive GTP binding when a GPCR is activated. The antagonist activity is evaluated according to the ability to counteract the increased [^35S]GTPγS binding induced by the LTC4 reference agonist. […]
Marks after values point to notes of the source that are not given here.
Quick reference: % Emax vs standard of the listed items.

Record excerpt, results attached:
COCCn1nnnc1C(c1cc2cc(OC)ccc2[nH]c1=O)N(CCc1ccccc1)Cc1ccccc1 (stereo not drawn) [(II)] : 142.8*** %
O=C(Nc1ccc(C(F)(F)F)cc1)N1CCC(c2nc(O)c3nnn(Cc4ccccc4Cl)c3n2)CC1 [(V)] : 111.5** %

Q: I'd like to know its % Emax vs standard. The molecule in question is COc1ccc(N(C(=O)Cn2nnc3ccccc32)C(C(=O)NCC2CCCO2)c2ccc(F)cc2)cc1 (stereo not drawn) [(IV)]
Result: 119.8*** %

Each recorded value in this set is attributed to patent US20150094348A1.
